biological target: D(3) dopamine receptor (Homo sapiens)
Sequence (P35462 whole entry): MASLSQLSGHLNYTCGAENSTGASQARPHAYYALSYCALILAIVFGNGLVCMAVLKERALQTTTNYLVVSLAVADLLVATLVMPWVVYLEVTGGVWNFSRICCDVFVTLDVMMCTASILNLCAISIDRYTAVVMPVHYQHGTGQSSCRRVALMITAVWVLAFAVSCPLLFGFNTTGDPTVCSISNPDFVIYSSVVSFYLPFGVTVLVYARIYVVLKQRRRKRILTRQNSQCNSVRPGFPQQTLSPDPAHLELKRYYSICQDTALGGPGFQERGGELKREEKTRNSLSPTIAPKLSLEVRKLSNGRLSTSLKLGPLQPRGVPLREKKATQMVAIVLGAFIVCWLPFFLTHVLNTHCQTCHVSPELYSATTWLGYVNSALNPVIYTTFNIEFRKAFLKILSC
pKi: −log10 of the molar value.
Measured pKi by item
Quantity Kind: pKi

record_smiles=O=C(/C=C/c1ccc(F)cc1)N[C@H]1CC[C@H](CCN2Cc3ccc(C(F)(F)F)cc3C2)CC1 numeric_result=8.00
record_smiles=COc1ccc2c(c1)CN(CC[C@H]1CC[C@H](NC(=O)/C=C/c3ccc(F)cc3)CC1)C2 numeric_result=8.10
record_smiles=N#Cc1ccc2c(c1)CN(CC[C@H]1CC[C@H](NC(=O)/C=C/c3ccc(F)cc3)CC1)C2 numeric_result=7.90

----------
target: 5-hydroxytryptamine receptor 1A (Homo sapiens)
Sequence (P08908 whole entry): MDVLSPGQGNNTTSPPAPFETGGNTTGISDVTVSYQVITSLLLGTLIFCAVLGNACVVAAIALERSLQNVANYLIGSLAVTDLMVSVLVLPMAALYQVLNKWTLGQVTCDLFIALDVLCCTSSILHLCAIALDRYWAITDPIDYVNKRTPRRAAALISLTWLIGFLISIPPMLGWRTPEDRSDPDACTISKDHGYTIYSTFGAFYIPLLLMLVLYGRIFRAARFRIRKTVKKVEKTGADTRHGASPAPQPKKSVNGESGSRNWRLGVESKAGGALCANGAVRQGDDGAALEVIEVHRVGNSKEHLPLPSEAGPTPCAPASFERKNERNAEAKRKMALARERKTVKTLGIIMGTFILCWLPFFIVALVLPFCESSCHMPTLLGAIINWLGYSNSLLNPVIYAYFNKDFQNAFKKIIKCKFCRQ
pKi: −log10 of the molar value.
Quantity Kind: pKi

record_smiles=CS(=O)(=O)Oc1ccc2c(c1)CN(CC[C@H]1CC[C@H](NC(=O)/C=C/c3ccc(F)cc3)CC1)C2 numeric_result=5.50

----------
molecular target: 5-hydroxytryptamine receptor 7 (Homo sapiens, UniProt P34969)
Sequence (P34969 whole entry): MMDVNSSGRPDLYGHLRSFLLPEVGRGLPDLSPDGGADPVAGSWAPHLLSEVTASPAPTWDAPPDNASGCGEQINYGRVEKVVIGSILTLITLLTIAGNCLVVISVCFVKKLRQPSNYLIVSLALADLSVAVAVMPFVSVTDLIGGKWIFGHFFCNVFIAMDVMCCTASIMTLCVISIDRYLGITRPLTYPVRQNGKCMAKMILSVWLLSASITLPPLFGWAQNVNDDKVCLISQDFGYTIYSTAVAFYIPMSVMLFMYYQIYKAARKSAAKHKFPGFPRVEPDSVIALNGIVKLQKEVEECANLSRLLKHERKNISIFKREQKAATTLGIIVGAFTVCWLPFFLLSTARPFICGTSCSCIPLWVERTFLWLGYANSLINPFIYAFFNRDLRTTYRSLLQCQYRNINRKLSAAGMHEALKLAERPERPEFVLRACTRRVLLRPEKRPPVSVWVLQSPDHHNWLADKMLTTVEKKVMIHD
pKi: −log10 of the molar value.
Quantity Kind: pKi

record_smiles=CS(=O)(=O)Oc1ccc2c(c1)CN(CC[C@H]1CC[C@H](NC(=O)/C=C/c3ccc(F)cc3)CC1)C2 quantity_kind=pKi result="< 5.40"

----------
test: Evaluated for the low clearance in rat (in vivo); assay type: ADME, organism-based; settings: blood, read-out: CLb
Quantity Kind: clearance (mL/min/kg)

record_smiles=CS(=O)(=O)Oc1ccc2c(c1)CN(CC[C@H]1CC[C@H](NC(=O)/C=C/c3ccc(F)cc3)CC1)C2 quantity_kind=clearance unit_string=mL/min/kg numeric_result=14

----------
biological target: D(2) dopamine receptor (Homo sapiens); assay: Displacement of [125I]iodosulpiride from human Dopamine receptor D2 expressed in CHO cells
Sequence (P14416 whole entry): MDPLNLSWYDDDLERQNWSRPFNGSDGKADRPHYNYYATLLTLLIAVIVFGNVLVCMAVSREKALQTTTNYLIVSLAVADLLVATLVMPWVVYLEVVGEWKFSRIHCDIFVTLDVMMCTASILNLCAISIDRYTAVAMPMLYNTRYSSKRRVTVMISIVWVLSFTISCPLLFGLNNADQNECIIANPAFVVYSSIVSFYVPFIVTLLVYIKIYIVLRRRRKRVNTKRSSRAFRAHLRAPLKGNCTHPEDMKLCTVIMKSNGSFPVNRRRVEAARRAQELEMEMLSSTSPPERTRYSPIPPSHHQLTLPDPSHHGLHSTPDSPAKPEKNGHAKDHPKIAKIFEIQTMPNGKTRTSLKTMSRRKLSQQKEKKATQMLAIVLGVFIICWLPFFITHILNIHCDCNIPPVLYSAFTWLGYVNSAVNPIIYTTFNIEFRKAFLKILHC
pKi: −log10 of the molar value.
# label = 1.0 if pKi >= 6 else 0.0

record_smiles=N#Cc1ccc2c(c1)CN(CC[C@H]1CC[C@H](NC(=O)c3ccnc4ccccc34)CC1)C2 label_value=0.0
record_smiles=N#Cc1ccc2c(c1)CN(CC[C@H]1CC[C@H](NC(=O)c3cc4ccccc4[nH]3)CC1)C2 label_value=0.0
record_smiles=O=C(/C=C/c1ccc(F)cc1)N[C@H]1CC[C@H](CCN2Cc3ccc(Br)cc3C2)CC1 label_value=1.0
record_smiles=CS(=O)(=O)Oc1ccc2c(c1)CN(CC[C@H]1CC[C@H](NC(=O)/C=C/c3ccc(F)cc3)CC1)C2 label_value=1.0
record_smiles=N#Cc1ccc2c(c1)CN(CC[C@H]1CC[C@H](NC(=O)/C=C/c3ccc(F)cc3)CC1)C2 label_value=1.0
record_smiles=COc1ccc2c(c1)CN(CC[C@H]1CC[C@H](NC(=O)/C=C/c3ccc(F)cc3)CC1)C2 label_value=1.0
record_smiles=O=C(/C=C/c1ccc(F)cc1)N[C@H]1CC[C@H](CCN2Cc3ccc(C(F)(F)F)cc3C2)CC1 label_value=1.0
